experiment: Plasma pharmacokinetics, Parkinson's disease patients, once daily for 14 days; assay type: in vivo, human; details: human, 18 mg, PD patients, read-out: Half-Life Lambda Z Mean (converted)
assay-readout: half-life (h)

structure-smiles | assay-readout | recorded-measurement
Cc1ccc(C(=O)NNC(=O)c2c(C)cccc2Cl)cc1C#Cc1cnc2ccccc2c1 | half-life | 13.5

---

assay: Plasma pharmacokinetics, Parkinson's disease patients, once daily for 14 days; assay type: in vivo, human; settings: human, oral, 18 mg, Day 1, plasma, PD patients, read-out: AUC0-24 Mean

structure-smiles | AUC(0-t) [ng·h/mL]
Cc1ccc(C(=O)NNC(=O)c2c(C)cccc2Cl)cc1C#Cc1cnc2ccccc2c1 | 2730

---

Experiment: Plasma pharmacokinetics, 7 once-daily oral doses, healthy volunteers
Format: in vivo, human
Details: male, human, plasma, oral, 48 mg, Day 1, plasma, Healthy Subjects, Table 10; read-out: Cmax Mean
Experimental: After 28 days of screening, the subjects were studied in sequential cohorts of 6 subjects each. The study was conducted for 17 days. […] After the dose, subjects continued to fast for additional 4 hours, water was allowed ad libitum with the exception of 1 hour prior and 1-hour post dose. The plasma and CSF samples were analyzed, by validated LC/MS-MS methods. […]
assay-readout: Cmax (ng/mL)

structure-smiles | assay-readout | unit-abbreviation | recorded-measurement
Cc1ccc(C(=O)NNC(=O)c2c(C)cccc2Cl)cc1C#Cc1cnc2ccccc2c1 | Cmax | ng/mL | 1380

---

Test: Plasma pharmacokinetics, 7 once-daily oral doses, healthy volunteers
Assay type: in vivo, human
Conditions: male, human, plasma, oral, 192 mg, Day 1, plasma, healthy volunteers; read-out: Cmax AM
Experimental: After 28 days of screening, the subjects were studied in sequential cohorts of 6 subjects each. The study was conducted for 17 days. […] After the dose, subjects continued to fast for additional 4 hours, water was allowed ad libitum with the exception of 1 hour prior and 1-hour post dose. The plasma and CSF samples were analyzed, by validated LC/MS-MS methods. […]

structure-smiles | Cmax / ng/mL
Cc1ccc(C(=O)NNC(=O)c2c(C)cccc2Cl)cc1C#Cc1cnc2ccccc2c1 | 3780

---

assay: Plasma pharmacokinetics, Parkinson's disease patients, once daily for 14 days; format: in vivo, human; settings: human, oral, 24 mg, Day 14, plasma, PD patients, read-out: Tmax median (range)
assay-readout: Tmax (h)

structure-smiles | assay-readout | recorded-measurement
Cc1ccc(C(=O)NNC(=O)c2c(C)cccc2Cl)cc1C#Cc1cnc2ccccc2c1 | Tmax | 2

---

assay: Plasma pharmacokinetics, 7 once-daily oral doses, healthy volunteers; assay type: in vivo, human; settings: male, human, plasma, oral, 192 mg, Day 1, plasma, healthy volunteers; read-out: Cmax GM
assay-readout: Cmax

structure-smiles | recorded-measurement
Cc1ccc(C(=O)NNC(=O)c2c(C)cccc2Cl)cc1C#Cc1cnc2ccccc2c1 | 3550 ng/mL

---

assay: Plasma pharmacokinetics, Parkinson's disease patients, once daily for 14 days; assay type: in vivo, human; conditions: human, 6 mg, Day 14, plasma, PD patients, read-out: AUC0-24 Mean

structure-smiles | AUC(0-t)
Cc1ccc(C(=O)NNC(=O)c2c(C)cccc2Cl)cc1C#Cc1cnc2ccccc2c1 | 1.25 µg·h/mL

---

assay: Plasma pharmacokinetics, 7 once-daily oral doses, healthy volunteers; assay type: in vivo, human; conditions: male, human, plasma, oral, 384 mg, Day 7, plasma, Healthy Subjects; read-out: AUC0-24 Mean

structure-smiles | unit-abbreviation | AUC(0-t)
Cc1ccc(C(=O)NNC(=O)c2c(C)cccc2Cl)cc1C#Cc1cnc2ccccc2c1 | µg·h/mL | 54.9
